Assay: Human HepG2 cell viability assay in 384 well format
Format: toxicity, cell-based
Set-up: dose 125 nL, time 70.5 hour; concentration not given beside the values
Conditions: HepG2 cells, read-out: Inhibition
Field: cytotoxicity at 70.5 h. Provide a value for each of the molecules that follow.
# value in %; strip the unit string

stdin: Can you share its cytotoxicity at 70.5 h? I mean this molecule: CN1CCN(c2ccccc2NC(=O)NCC[S+](C)[O-])CC1 (stereo not drawn)
stdout: -7.57

stdin: Now consider `CCOc1ccc(CN2CC[C@H]3CC[C@@H](C2)N3)cc1CO` and answer again.
stdout: -14

stdin: Now consider Cc1cc(CN(C)C(=O)C2CCC(=O)N(CC3CCCCC3)C2)n[nH]1 (stereo not drawn) and answer again.
stdout: -8.5

stdin: Now consider `Cc1cccc(CN2C(=O)C[C@H]3[C@@H]2CCN3Cc2ccc(F)cc2)n1` and answer again.
stdout: -2.72

stdin: Now consider `CN1C(=O)C2(CCN(c3nccc4occc34)CC2)c2ccccc21` and answer again.
stdout: 9.71

stdin: Now consider `CC(=O)c1cc(C(=O)N2CCC3(CC2)Nc2ccccc2NC3=O)cs1` and answer again.
stdout: -7.09

stdin: Now consider CCCn1[nH]cc/c1=N\C(=O)CN1CCCC1Cn1nc(C)nc1C (stereo not drawn) and answer again.
stdout: -1.59

stdin: Now consider `CNc1nc(C(=O)N2CCCN(c3ccnc(C)c3)CC2)cs1` and answer again.
stdout: -5.86

stdin: Now consider `Cc1cc(-c2cnc(NC3CCCC3)nc2-c2ccc(C)o2)on1` and answer again.
stdout: -5.77

stdin: Now consider `O=C(Cn1cnc2ccsc2c1=O)NCCCc1nnc2ccccn12` and answer again.
stdout: 26.5

stdin: Now consider `Cc1ccc(C(N)=O)c(N2Cc3cnc(C(C)(C)C)nc3C2)n1` and answer again.
stdout: -11.7

stdin: Now consider COc1ccc(C(=O)N2CCCC(n3cncn3)C2)nn1 (stereo not drawn) and answer again.
stdout: 10.5

stdin: Now consider CC(Oc1ccccc1C(F)(F)F)C(=O)NCC(=O)N1CCCC1 (stereo not drawn) and answer again.
stdout: -6.07

stdin: Now consider Cc1ccnc(C2CCCN2C(=O)c2cnccn2)n1 (stereo not drawn) and answer again.
stdout: -9.28

stdin: Now consider Cc1cc(NC(=O)C(C)N2CCCN(c3nccs3)CC2)on1 (stereo not drawn) and answer again.
stdout: -15.9

stdin: Now consider `COc1cc(CCC(=O)N2CCC(c3cncc(C)n3)CC2)on1` and answer again.
stdout: -3.99

stdin: Now consider `Cc1[nH]ccc1C(=O)N[C@H]1CN(CCO)C[C@@H]1C1CC1` and answer again.
stdout: -6.42

stdin: Now consider `Cc1nnc(CSc2n[nH]c(-c3ccccn3)n2)o1` and answer again.
stdout: -7.45

stdin: Now consider CNC(=O)NCC1CCC2(CCN(C(=O)c3ccccc3)CC2)CO1 (stereo not drawn) and answer again.
stdout: -2.1

stdin: Now consider `CC(C)n1cc(CN2CCCN(C(=O)c3ccnn3C)CC2)cn1` and answer again.
stdout: -2.89

stdin: Now consider Cc1cc(C)n(C2CCCN(C(=O)c3ccc(N(C)C)nc3)C2)n1 (stereo not drawn) and answer again.
stdout: -2.57

stdin: Now consider Cc1nc(C2CCCN2CC(=O)N2CCc3ccccc32)no1 (stereo not drawn) and answer again.
stdout: 21.3

stdin: Now consider Cc1cccc(CN2CCC3(CCN(c4cccnc4)C3=O)C2)n1 (stereo not drawn) and answer again.
stdout: 2.95
